target: FXR (Homo sapiens, UniProt Q96RI1); test: FXR TR-FRET binding assay (DY246 fluorescent probe); conditions: at 40 μM; read-out: FXR TR-FRET Binding % Inh.
property: inhibition at 40 µM (%)
Unit % implied. Number only.

Recorded result, COCCc1nn(C(C)C)cc1C(=O)Nc1ccc(C)c(S(=O)(=O)N2CCOCC2)c1 [Compound 4r] , inhibition at 40 µM: 98.2

Recorded result, COc1cccc(Cn2cc(C(=O)N(C)c3ccc(C)c(S(=O)(=O)N4CCOCC4)c3)c(-c3cccc(OC)c3)n2)c1 [Compound 8-3] , inhibition at 40 µM: 69.7

Recorded result, COc1cccc(Cn2cc(C(=O)N(C)c3ccc(C)c(S(=O)(=O)N4CCOCC4)c3)c(C(C)C)n2)c1 [Compound 8-2] , inhibition at 40 µM: 80.3

Recorded result, Cc1ccc(-c2nn(C(C)C)cc2C(=O)N(C)c2ccc(C)c(S(=O)(=O)N3CCOCC3)c2)cc1 [Compound 8-1] , inhibition at 40 µM: 133

---

tested on: GeneBLAzer FXR-UAS-bla HEK 293T cells; conditions: human, 16 h, 40 μM
Exercise: for every item that follows, state its recorded GB FXR Cell Cyto % Inh..

Recorded result, COc1cccc(Cn2cc(C(=O)N(C)c3ccc(C)c(S(=O)(=O)N4CCOCC4)c3)c(C(C)C)n2)c1 , GB FXR Cell Cyto % Inh.: 13.5 ± 0.4 (40 μM) %

Recorded result, COc1cccc(Cn2cc(C(=O)N(C)c3ccc(C)c(S(=O)(=O)N4CCOCC4)c3)c(-c3cccc(OC)c3)n2)c1 , GB FXR Cell Cyto % Inh.: 19.7 ± 0.4 (40 μM) %

Recorded result, COc1cccc(Cn2cc(CNc3ccc(C)c(S(=O)(=O)N4CCOCC4)c3)c(C(C)C)n2)c1 , GB FXR Cell Cyto % Inh.: 13.9 ± 0.6 (40 μM) %

---

Molecular target: UniProt Q96RI1
Sequence (Q96RI1 262-486 limits assumed): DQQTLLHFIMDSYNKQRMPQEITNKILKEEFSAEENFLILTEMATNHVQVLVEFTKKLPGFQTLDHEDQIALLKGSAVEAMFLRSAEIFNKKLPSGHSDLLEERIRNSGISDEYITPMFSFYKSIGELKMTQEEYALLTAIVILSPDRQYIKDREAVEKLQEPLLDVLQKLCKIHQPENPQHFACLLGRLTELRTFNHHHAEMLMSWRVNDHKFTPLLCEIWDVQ
Test: FXR TR-FRET binding assay (DY246 fluorescent probe)
Settings: mean ± SE
Exercise: for every item that follows, state its recorded IC50.
Unit nM implied. Number only.

Recorded result, Cc1ccc(NC(=O)c2cn(C(C)C)nc2-c2ccc(C(F)(F)F)cc2)cc1S(=O)(=O)N1CCOCC1 , IC50: 77.5

Recorded result, Cc1ccc(-c2nn(CC3CC3)cc2C(=O)Nc2ccc(C)c(S(=O)(=O)N3CCOCC3)c2)cc1 , IC50: 76.9

Recorded result, Cc1ccc(-c2nn(Cc3cccc(C(F)(F)F)c3)cc2C(=O)Nc2ccc(C)c(S(=O)(=O)N3CCOCC3)c2)cc1 , IC50: 18.4

---

Target: FXR (Homo sapiens)
Sequence (Q96RI1 262-486 limits assumed): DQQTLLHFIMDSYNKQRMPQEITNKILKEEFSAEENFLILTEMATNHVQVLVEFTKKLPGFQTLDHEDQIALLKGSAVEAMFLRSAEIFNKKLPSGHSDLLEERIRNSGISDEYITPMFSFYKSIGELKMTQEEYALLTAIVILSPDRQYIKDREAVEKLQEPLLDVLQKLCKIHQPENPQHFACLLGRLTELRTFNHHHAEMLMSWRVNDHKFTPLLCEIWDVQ
Assay: FXR TR-FRET binding assay (DY246 fluorescent probe)
Conditions: mean ± SE
Each record is given Satisfied if its reported IC50 is strictly below 20 nM. Records at or above 20 nM are given Not satisfied.

I'd appreciate it if you could check whether Cc1ccc(-c2nn(-c3nc4ccccc4s3)cc2C(=O)Nc2ccc(C)c(S(=O)(=O)N3CCOCC3)c2)cc1 has IC50 smaller than 20 nM.
Satisfied

I'd appreciate it if you could check whether COc1cccc(Cn2cc(C(=O)Nc3ccc(C)c(S(=O)(=O)N4CCOCC4)c3)c(-c3cccc(OC)c3)n2)c1 has IC50 smaller than 20 nM.
Not satisfied

I'd appreciate it if you could check whether Cc1ccc(-c2nn(C(C)C)cc2CNc2ccc(C)c(S(=O)(=O)N3CCOCC3)c2)cc1 has IC50 smaller than 20 nM.
Not satisfied

I'd appreciate it if you could check whether COc1cccc(Cn2cc(C(=O)N(C)c3ccc(C)c(S(=O)(=O)N4CCOCC4)c3)c(-c3cccc(OC)c3)n2)c1 has IC50 smaller than 20 nM.
Not satisfied

I'd appreciate it if you could check whether Cc1ccc(-c2nn(-c3cccc(Cl)c3)cc2C(=O)Nc2ccc(C)c(S(=O)(=O)N3CCOCC3)c2)cc1 has IC50 smaller than 20 nM.
Satisfied

I'd appreciate it if you could check whether Cc1ccc(-c2nn(C(C)C)cc2C(=O)Nc2ccc(C)c(S(=O)(=O)N3CCOCC3)c2)cc1 has IC50 smaller than 20 nM.
Not satisfied

I'd appreciate it if you could check whether Cc1ccc(-c2nn(Cc3ccc4ccccc4c3)cc2C(=O)Nc2ccc(C)c(S(=O)(=O)N3CCOCC3)c2)cc1 has IC50 smaller than 20 nM.
Satisfied

I'd appreciate it if you could check whether Cc1ccc(-c2nn(-c3ccc(F)cc3)cc2C(=O)Nc2ccc(C)c(S(=O)(=O)N3CCOCC3)c2)cc1 has IC50 smaller than 20 nM.
Not satisfied

I'd appreciate it if you could check whether Cc1ccc(-c2nn(-c3ccc(Cl)cc3Cl)cc2C(=O)Nc2ccc(C)c(S(=O)(=O)N3CCOCC3)c2)cc1 has IC50 smaller than 20 nM.
Satisfied

I'd appreciate it if you could check whether Cc1ccc(-c2nn(-c3cccc(C(F)(F)F)c3)cc2C(=O)Nc2ccc(C)c(S(=O)(=O)N3CCOCC3)c2)cc1 has IC50 smaller than 20 nM.
Not satisfied

I'd appreciate it if you could check whether COc1cccc(Cn2cc(C(=O)Nc3ccc(C)c(S(=O)(=O)N4CCOCC4)c3)c(-c3ccc(C)cc3)n2)c1 has IC50 smaller than 20 nM.
Satisfied

I'd appreciate it if you could check whether COc1cccc(Cn2cc(C(=O)Nc3ccc(C)c(S(=O)(=O)N4CCOCC4)c3)c(-c3ccc(C(F)(F)F)cc3)n2)c1 has IC50 smaller than 20 nM.
Not satisfied

I'd appreciate it if you could check whether COc1cccc(-c2nn(C(C)C)cc2C(=O)Nc2ccc(C)c(S(=O)(=O)N3CCOCC3)c2)c1 has IC50 smaller than 20 nM.
Not satisfied
